I'd be grateful if you could share measured hAM1R EC50 (cAMP) for these entries.
STUDY TARGET: hAM1R (human, UniProt Q16602)
EXPERIMENT DESCRIPTION: cell-based or functional assay
Bridge positions count the residues as written; N and C are the ends. Square brackets hold non-standard residues; d marks the D form. Ends that are not written are not given here. Hyp = O=C(O)[C@@H]1C[C@@H](O)CN1; Cit = NC(=O)NCCC[C@H](N)C(=O)O

**Q:** Name the recorded hAM1R EC50 (cAMP) of the item RCQASTCTVA[Cit]LAEQIAQYTDKDKDQVAPPTEVGPNS[Hyp]-NH2 (disulfide 2-7 (inferred); ends not checked) [SEQ ID NO: 33] in your answer.
**A:** > 5 µM

**Q:** Give recorded hAM1R EC50 (cAMP). KCNTATCTVQRLAHQIYQFTAKDKDNVAPPTNVGSNG[Hyp]-NH2 (disulfide 2-7 (inferred); ends not checked) [SEQ ID NO: 24]
**A:** > 5 µM

**Q:** Look up and state reported hAM1R EC50 (cAMP) for KCNTATCTVQRLAHQIYAFTDKDKDNVAPPTNVGSNG[Hyp]-NH2 (disulfide 2-7 (inferred); ends not checked) [SEQ ID NO: 42]
**A:** > 5 µM

**Q:** Fill in hAM1R EC50 (cAMP) for record GCRTGTCTVQRLAHQIYQFTNKDKDNVAPRSKISPQTM [SEQ ID NO: 237]
**A:** 4.25 µM

**Q:** Return hAM1R EC50 (cAMP) for the following binder: KCNTATCTVQ[Cit]LAHQIYQFADKDKDNVAPPTNVGSNG[Hyp]-NH2 (disulfide 2-7 (inferred); ends not checked) [SEQ ID NO: 249]
**A:** > 5 µM

**Q:** Answer with reported hAM1R EC50 (cAMP) of GCRTGTCTVQ[Cit]LAHQIYQFTDKDKDNVAPRTKVGPQGY-NH2 (disulfide 2-7 (inferred); ends not checked) [SEQ ID NO: 298]
**A:** > 5 µM

**Q:** Return the recorded hAM1R EC50 (cAMP) value; entry: GCRTGTCTVQWLAHQIYQFTDKDKDNVAPRTNIGPQG[Hyp]-NH2 (disulfide 2-7 (inferred); ends not checked) [SEQ ID NO: 341]
**A:** > 5 µM

**Q:** Identify measured hAM1R EC50 (cAMP) associated with GCRTGTCTVQRLAHQIYQFTDKDKDNVAPRTKVSPQG[Hyp]-NH2 (disulfide 2-7 (inferred); ends not checked) [SEQ ID NO: 216]
**A:** 2.98 µM

**Q:** Could you please provide reported hAM1R EC50 (cAMP) for GCRTGTCTVQRLAHQIYQFTNKDKDNVAPRSKISPQW[Hyp]-NH2 (disulfide 2-7 (inferred); ends not checked) [SEQ ID NO: 220] ? Thanks!
**A:** > 5 µM

**Q:** # return recorded hAM1R EC50 (cAMP) for entry KCNTATCATQRLANFLVHSSNNFGAILPSTKIGSNTY [SEQ ID NO: 180]
**A:** > 5 µM
